Target: Bcl-2 protein (Recombinant Human Bcl-2 Protein) (Homo sapiens, UniProt P10415)
Construct: purchased Novus Biologicals NBP2-34889
Sequence (P10415 whole entry): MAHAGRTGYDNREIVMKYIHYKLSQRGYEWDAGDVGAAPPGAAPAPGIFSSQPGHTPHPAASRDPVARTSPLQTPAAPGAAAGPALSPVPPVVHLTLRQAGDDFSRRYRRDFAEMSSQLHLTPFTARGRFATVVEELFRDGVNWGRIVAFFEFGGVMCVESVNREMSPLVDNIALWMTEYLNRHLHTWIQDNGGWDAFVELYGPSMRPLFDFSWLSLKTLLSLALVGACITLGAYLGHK
Experiment: AS-MS evaluation of binding of the Example 4 mixture library (1200 compounds/well) to Bcl-2, ASMS ratio (%)
Conditions: AS-MS, mixture of 1200 compounds/well, Bcl-2 protein; replicate n = 1
assayReadout: ASMS ratio (%) n = 1

Take a look at these entries with their results.
compound	ASMS ratio (%) n = 1
CCCNC(=O)c1ccc(N2CCN(C(=O)c3ccc(-c4cccc(OCC)c4)c(C)c3)CC2)cc1	3.6
CCOc1cncc(C#Cc2cc(C(=O)N3CCN(c4ccc(C(=O)N(C)CC56CC7CC(CC(C7)C5)C6)nn4)CC3)cc(C(F)(F)F)c2)c1	7.5
CCCNC(=O)c1ccc(N2CCN(C(=O)c3cc(C#Cc4cccc(OCC)c4)cc(C(F)(F)F)c3)CC2)nn1	1.5
CCCNC(=O)c1ccc(N2CCN(C(C)c3ccc(-c4cccc(OCC)c4)cc3)CC2)cc1 (stereo not drawn)	1.1

P: CCCNC(=O)c1ccc(N2CCN(Cc3cc(OCC)cc(-c4cncc(OCC)c4)c3)CC2)nn1
Q: CCCNC(=O)c1ccc(N2CCN(Cc3cc(-c4cncc(OCC)c4)cs3)CC2)nn1
Returns the identifier with the smallest measured ASMS ratio (%) n = 1 among P and Q . Kindly state the label of the option you pick.
P
(P: −3.5%, Q: −1.5%)

----------
Molecular target: Bcl-2 protein (Recombinant Human Bcl-2 Protein) (Homo sapiens)
Construct: purchased Novus Biologicals NBP2-34889
Assay: AS-MS evaluation of binding of the Example 4 mixture library (1200 compounds/well) to Bcl-2, ASMS ratio (%)
Conditions: AS-MS, Example 4 mixture library, Bcl-2, replicate n = 2
assayReadout: ASMS ratio (%) n = 2

smi	ASMS ratio (%) n = 2
CCOc1cccc(-c2ccc(C(=O)N3CCN(c4ccc(C(=O)NS(=O)(=O)c5ccc(NCCSc6ccccc6)c(C(F)(F)F)c5)cc4)CC3)cc2C)c1	−2.4

A: CCOc1cccc(C#Cc2cncc(C(=O)N3CCN(c4ccc(C(=O)NS(=O)(=O)c5ccc(NCCSc6ccccc6)c(C(F)(F)F)c5)nn4)CC3)c2)c1
B: CCOc1cccc(-c2ccccc2CN2CCN(c3ccc(C(=O)NS(=O)(=O)c4ccc(NCCSc5ccccc5)c(C(F)(F)F)c4)cc3)CC2)c1
Param metric = ASMS ratio (%) n = 2; output whichever of A , B has the minimum value. I would appreciate it if you answered with the label of your choice.
B
(B: −3.4%, A: 19.5%)

----------
Target: Bcl-2 protein (Recombinant Human Bcl-2 Protein) (Homo sapiens)
Construct: purchased Novus Biologicals NBP2-34889
Experiment: AS-MS evaluation of binding of the Example 4 mixture library (1200 compounds/well) to Bcl-2, ASMS ratio (%)
Conditions: AS-MS, Example 4 mixture library, Bcl-2, replicate n = 1
assayReadout: ASMS ratio (%) n = 1

Sample answers from the record:
smi	assayReadout	value
CCOc1cccc(-c2cc(C(=O)N3CCN(c4ccc(C(=O)NS(=O)(=O)c5ccc(NCCSc6ccccc6)c(C(F)(F)F)c5)cc4)CC3)cc(C(F)(F)F)c2)c1	ASMS ratio (%) n = 1	9.7
CCOc1cncc(-c2cnn(-c3cc(C(=O)N4CCN(c5ccc(C(=O)NS(=O)(=O)CCC(F)(F)F)nn5)CC4)cc(C(F)(F)F)c3)c2)c1	ASMS ratio (%) n = 1	0.0
CCOc1cncc(-c2cc(C(=O)N3CCN(c4ccc(C(=O)NS(=O)(=O)CCC(F)(F)F)cc4)CC3)cc(C(C)(C)C)c2)c1	ASMS ratio (%) n = 1	0.0

I: CCOc1cncc(-c2ccc(CN3CCN(c4ccc(C(=O)NS(=O)(=O)CCC(F)(F)F)cc4)CC3)c(OC)c2)c1
II: CCOc1cncc(-c2cc(OC)c(CN3CCN(c4ccc(C(=O)NS(=O)(=O)c5ccc(NCCSc6ccccc6)c(C(F)(F)F)c5)cc4)CC3)c(OC)c2)c1
III: CCOc1cncc(C#Cc2cncc(C(=O)N3CCN(c4ccc(C(=O)NS(=O)(=O)CCC(F)(F)F)cc4)CC3)c2)c1
IV: CCOc1cccc(C#Cc2ccccc2CN2CCN(c3ccc(C(=O)NS(=O)(=O)CCC(F)(F)F)cc3)CC2)c1
V: CCOc1cccc(-c2ccc(C(=O)N3CCN(c4ccc(C(=O)NS(=O)(=O)c5ccc(NCCSc6ccccc6)c(C(F)(F)F)c5)cc4)CC3)cc2C)c1
Rank entries according to their ASMS ratio (%) n = 1, from the largest number down. Show the ranking through the labels, in the order asked for.
II, I, III, V, IV
(II: 3.9%, I: 0.0%, III: −0.4%, V: −1.0%, IV: −1.8%)

P: CCOc1cncc(-c2ccccc2CCC(=O)N2CCN(c3ccc(C(=O)NS(=O)(=O)CCC(F)(F)F)nn3)CC2)c1
Q: CCOc1cncc(-c2csc(CN3CCN(c4ccc(C(=O)NS(=O)(=O)c5ccc(NCCSc6ccccc6)c(C(F)(F)F)c5)nn4)CC3)c2)c1
Short answer wanted: higher ASMS ratio (%) n = 1, P or Q ? Please indicate the selected item by its label.
Q
(Q: 18.8%, P: 0.0%)

----------
Target: Bcl-2 protein (Recombinant Human Bcl-2 Protein) (Homo sapiens, UniProt P10415)
Construct: purchased Novus Biologicals NBP2-34889
Experiment: AS-MS evaluation of binding of the Example 4 mixture library (1200 compounds/well) to Bcl-2, ASMS ratio (%)
Settings: replicate n = 1; mixture library; value belongs to the MS peak assigned to the compound
assayReadout: ASMS ratio (%) n = 1

smi	unitInfo	value
CCOc1cccc(-c2ccccc2CCC(=O)N2CCN(c3ccc(C(=O)NS(=O)(=O)C(C)(C)C)cc3)CC2)c1	%	0.0
CCOc1cncc(-c2ccc(CN3CCN(c4ccc(C(=O)NS(C)(=O)=O)cc4)CC3)c(CC)c2)c1	%	0.0

P: CCOc1cncc(-c2cc(CN3CCN(c4ccc(C(=O)NS(C)(=O)=O)nn4)CC3)cc(OC(F)(F)F)c2)c1
Q: CCOc1cccc(-c2cc(CN3CCN(c4ccc(C(=O)NS(C)(=O)=O)nn4)CC3)cc(C(F)(F)F)c2)c1
R: CCOc1cncc(-c2ccc(CN3CCN(c4ccc(C(=O)NS(=O)(=O)C(C)(C)C)cc4)CC3)cc2F)c1
Please list these compounds in decreasing order of ASMS ratio (%) n = 1. Note for the reader: the ranking is given by listing the labels in the order requested.
R, Q, P
(R: 2.7%, Q: 1.3%, P: 0.0%)

----------
Target: Bcl-2 protein (Recombinant Human Bcl-2 Protein) (Homo sapiens)
Construct: purchased Novus Biologicals NBP2-34889
Assay: AS-MS evaluation of binding of the Example 4 mixture library (1200 compounds/well) to Bcl-2, ASMS ratio (%)
Details: AS-MS, Example 4 mixture library, Bcl-2, replicate n = 1
assayReadout: ASMS ratio (%) n = 1

compound	unitInfo	value
CCOc1cncc(-c2ccc(C(C)N3CCN(c4ccc(C(=O)NS(=O)(=O)C(C)(C)C)cc4)CC3)c(F)c2)c1 (centres unmarked)	%	0.0
CCOc1cccc(-c2ccc(CN3CCN(c4ccc(C(=O)NS(=O)(=O)CCC(F)(F)F)cc4)CC3)c(OC)c2)c1	%	0.0
CCOc1cncc(-c2cc(C(=O)N3CCN(c4ccc(C(=O)NS(=O)(=O)c5ccc(NCCSc6ccccc6)c(C(F)(F)F)c5)nn4)CC3)cc(C(F)(F)F)c2)c1	%	5.1
CCOc1cccc(-c2cc(C(=O)N3CCN(c4ccc(C(=O)NS(=O)(=O)c5ccc(NCCSc6ccccc6)c(C(F)(F)F)c5)cc4)CC3)cc(C(C)(C)C)c2)c1	%	6.3
CCOc1cncc(C#Cc2ccccc2C(=O)N2CCN(c3ccc(C(=O)NS(=O)(=O)CCC(F)(F)F)nn3)CC2)c1	%	0.0

A: CCOc1cccc(-c2ccc(C(=O)N3CCN(c4ccc(C(=O)NS(=O)(=O)CCC(F)(F)F)cc4)CC3)cc2C)c1
B: CCOc1cccc(-c2ccc(C(C)N3CCN(c4ccc(C(=O)NS(=O)(=O)c5ccc(NCCSc6ccccc6)c(C(F)(F)F)c5)cc4)CC3)cc2)c1 (centres unmarked)
Returns: the argument ( A or B ) having the larger ASMS ratio (%) n = 1. Mark your answer with the label of the selected entry.
B

----------
Target: Bcl-2 protein (Recombinant Human Bcl-2 Protein) (Homo sapiens)
Construct: purchased Novus Biologicals NBP2-34889
Assay: AS-MS evaluation of binding of the mixture libraries of Examples 8 and 9 to Bcl-2, ASMS ratio (%), Example 11
Details: ASMS ratio, replicate N2; mixtures obtained from Example 9, 10 uM Bcl-2 protein
assayReadout: AS-MS(%) N2

In the examples that follow, each entry is paired with its recorded AS-MS(%) N2.
compound	assayReadout	value
CC(C(=O)Nc1ccc(F)cc1)c1cc(O)cc(N2CCN(c3ccc(C(=O)NS(=O)(=O)c4ccc(NCCSc5ccccc5)c([N+](=O)[O-])c4)cc3)CC2)c1 (stereo not drawn)	AS-MS(%) N2	33.4
Cc1ccc(NC(=O)C(C)c2cc(O)cc(N3CCN(c4ccc(C(=O)NS(=O)(=O)c5ccc(N[C@H](CCN6CCOCC6)CSc6ccccc6)c([N+](=O)[O-])c5)cc4)CC3)c2)cc1 (stereo partly drawn)	AS-MS(%) N2	68.3
CC(C(=O)Nc1ccccc1)c1cc(O)cc(N2CCN(c3ccc(C(=O)NS(=O)(=O)c4ccc(N[C@H](CCN5CCOCC5)CSc5ccccc5)c([N+](=O)[O-])c4)cc3)CC2)c1 (stereo partly drawn)	AS-MS(%) N2	77.8

1: CC(C(=O)Nc1nc2ccccc2s1)c1cc(O)cc(N2CCN(c3ccc(C(=O)NS(=O)(=O)c4ccc(N[C@H](CCN5CCOCC5)CSc5ccccc5)c([N+](=O)[O-])c4)cc3)CC2)c1 (stereo partly drawn)
2: CCOc1cc(C(C)C(=O)Nc2nc3ccccc3s2)cc(N2CCN(c3ccc(C(=O)NS(=O)(=O)c4ccc(N[C@H](CCN5CCOCC5)CSc5ccccc5)c([N+](=O)[O-])c4)cc3)CC2)c1 (stereo partly drawn)
3: CC(C(=O)Nc1nc2ccccc2s1)c1cc(O)cc(N2CCN(c3ccc(C(=O)NS(=O)(=O)c4ccc(NCCSc5ccccc5)c([N+](=O)[O-])c4)cc3)CC2)c1 (stereo not drawn)
Please put the entries in order of rising AS-MS(%) N2. Answer by naming the labels in the order asked.
3, 1, 2
(3: 38.1%, 1: 93.2%, 2: 137.5%)
